Recorded Activity by entry
Assay: Antiplatelet activity against washed rabbit platelet assessed as PAF-induced platelet aggregation at 300 uM administered 3 mins before PAF challenge
Assay type: functional, Oryctolagus cuniculus
Numbers only; they are read as %.

Observe how each entry below is paired with its result.
1. COc1c(-c2ccc(OC(C)=O)c(OC(C)=O)c2)oc2cc(OC(C)=O)cc(OC(C)=O)c2c1=O
0
2. COc1cc(OC(C)=O)cc2cc(C)c(C(C)=O)c(OC(C)=O)c12 [ISOTORACHRYSONE PERACETATE]
86.7
3. COc1c(-c2ccc(O)c(O)c2)oc2cc(O)cc(O)c2c1=O [3-O-METHYLQUERCETIN]
50.1

Task item: Quick one: Activity of COc1cc(O)c2c(O)c3c(cc2c1)COC3=O ?
Reply: 80
